- target-or-system: Serine/threonine-protein kinase MRCK alpha (Homo sapiens);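 further: each inhibition figure is a mean value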
- cond: at 0.1 µM
Please go through the items and note down their inhibition.
Give the value, in units of %, as a plain number.

Quick one: inhibition for `COc1ccc2ncn(-c3cc(O[C@H](C)c4ccccc4Cl)c(C(N)=O)s3)c2c1` ? -0.38

So what's the measured inhibition for this one? `Fc1ccc(-c2nc3n(c2-c2ccncc2)CCS3)cc1` 0.18

I am curious: what inhibition value has been reported for `NC(=O)Cc1ccccc1Oc1nccc(-c2c(-c3ccc(F)cc3)ncn2C2CCNCC2)n1` ? 0.16

Given the compound `CS(=O)(=O)CCNCc1cc(-c2cc3c(Nc4ccc(OCc5cccc(F)c5)c(Cl)c4)ncnc3s2)cs1` , what is its reported inhibition? 2.36

Given the compound `Cc1ccc(C(=O)NC(C)C)cc1-c1ccc(C(=O)NCC2CC2)cc1` , what is its reported inhibition? 0.02

Consider the compound shown here: `c1ccc(Oc2ccc(Nc3ncc(-c4ccccc4)o3)cc2)cc1` What is its recorded inhibition? -0.31

inhibition lookup needed for `CCN(CC)Cc1ccc(Nc2nccc(-c3cnn4ncccc34)n2)cc1` , thanks. 2.38

Name the recorded inhibition for `CN(C)CCCNc1nccc(-c2c(-c3ccc(F)cc3)nn3cc(C(F)(F)F)ccc23)n1` . 0.46

For `C[C@@H](Oc1cc(-n2cnc3ccc(OCC4CCN(C)CC4)cc32)sc1C(N)=O)c1ccccc1Cl` , what is its reported inhibition? 3.98

# lookup: inhibition of `COc1cc2ncn(-c3cc(OCCc4ccccc4)c(C(N)=O)s3)c2cc1OC` 1.17

Look at this compound and give its reported inhibition. `NC(=O)c1cc(-c2ccncc2)cc(-c2ccccc2)c1N` 0.84

Entry `O=C(Nc1ccc(Oc2ccc3[nH]c(NC(=O)c4ccccc4)nc3c2)cc1)Nc1cc(C(F)(F)F)ccc1F` : reported inhibition = ? -0.69

I am curious: what inhibition value has been reported for Nc1nccc(-c2c(-c3ccc(F)cc3)ncn2C2CCC(O)CC2)n1 (stereo not drawn) ? -0.25

# lookup: inhibition of `O=C(Nc1n[nH]c2nc(-c3ccc(O)cc3)c(Br)cc12)C1CC1` 1.56

What measured inhibition goes with `Clc1ccc(CNc2nccc(-c3cnn4ncccc34)n2)cc1` ? 0

If you can, please state the reported inhibition value of `Cc1ccc(C(=O)NC2CCC2)cc1-c1ccc(C(=O)NCC2CC2)cc1` . 0.19

# lookup: inhibition of `CNC(=O)c1cncc(/C=C/c2c(C)cccc2C)c1` 1.09

For the compound shown here, `O=C1Nc2ccccc2/C1=C/Nc1ccc(-n2cncn2)cc1` , give the reported inhibition. 0.72

What value of inhibition has been reported for the following compound? `CCC(=O)Nc1ccc(C)c(-c2ccc(C(=O)NCC3CC3)cc2)c1` 0

GET /values?readout=inhibition&item= `CN(C)c1ccc2c(c1)/C(=C/Nc1ccc(S(N)(=O)=O)cc1)C(=O)N2` 0.22

For `COc1cc(N2CCN(C(C)C)CC2)ccc1Nc1nc(Nc2ccc(F)cc2C(=O)NC[C@@H](O)CO)c2cc[nH]c2n1` , what is its reported inhibition? -0.84

Fill in the blank: the reported inhibition of `C#Cc1cccc(Nc2ncnc3ccc(OCCCCNCCS(C)(=O)=O)cc23)c1` is ____. -0.05

Item `COc1ccc(C2=C(N3CCc4ccccc43)C(=O)NC2=O)cc1` has what recorded inhibition? -0.56
